TGI values for the compounds below.
- Tested on: SN12C renal
- procedure.text: NCI tumour cell line growth inhibition, 48 h
value.kind: TGI

compound	value.kind	reported.measurement
Cc1ccc(S(=O)(=O)N/N=c2\c(C)c(C3=NS(=O)(=O)c4cc(S(N)(=O)=O)c(Cl)cc4N3)oc3c(Cl)cc(Cl)cc23)cc1	TGI	> 100 µM
CC(=O)Nc1ccc(CNc2cc(=O)n(C)c(=O)[nH]2)cc1	TGI	> 100 µM
O=C1C2=Nc3ccccc3C(O)N2c2ccccc21 (stereo not given)	TGI	> 100 µM
Cc1noc(C)c1-c1cc(O)cc(C(O)c2ccccc2)c1 (stereo not given)	TGI	> 100 µM
CC(=O)OC/C=C/Cn1ncc(=O)[nH]c1=O	TGI	> 100 µM
O=C(O)Cc1cccc2c1Oc1ccccc1S2	TGI	> 100 µM
O=C(Nc1ccc(Oc2ccc3nc(NC(=O)c4ccccc4)[nH]c3c2)cc1)Nc1cc(C(F)(F)F)ccc1F	TGI	> 25 µM
c1cc(-c2ccc(-c3ccc(C4=NC5CCCCC5N4)cc3)o2)ccc1C1=NC2CCCCC2N1 (stereo not given)	TGI	3.03 µM
O=C(CCCN1CCOCC1)Nc1ccc(Cn2nnc3c2C(=O)c2nnn(Cc4ccc(NC(=O)CCCN5CCOCC5)cc4)c2C3=O)cc1	TGI	3.67 µM
Oc1c(CN2CCCC2)cc(COCc2ccc(Br)cc2)c2cccnc12	TGI	5.86 µM
